peptide exchange yield: recorded values
Target: T1, HLA-A*01:01 (human)
T1 construct: MHC class I monomer first loaded with a UV-sensitive peptide (not identified) that is cleaved by UV irradiation and exchanged for the tested peptide; captured on streptavidin plates, detected with anti-β2m; also called peptide-receptive MHC molecules
Test: UV-ligand exchange, anti-b2m ELISA

Examples from the recorded data:
LMEKEDYHSLY; 50 to 75%
VSSTVHNLY; > 75%
EGELSEGEHWY; 50 to 75%

Field request: peptide exchange yield | item: "YYYDTHTNTY" 10 to 20%
